Cited source: paper PMC4090575

assay: In vivo microdialysis pharmacokinetics of free FLZ in blood and brain dialysates, with or without zosuquidar·3HCl pretreatment; set-up: species or system rat; conditions: rat, blood (jugular vein) dialysate, iv, 35 mg/kg, FLZ only-N: normal rats, FLZ 35 mg/kg i.v., blood dialysate; read-out: t 1/2, Blood (converted)
Result type: half-life
Express the reported value numerically, then name its unit.

Give a short answer stating reported half-life for COc1ccc(OC)c(C(=Cc2ccc(O)c(OC)c2)C(=O)NCCc2ccc(O)cc2)c1 .
1.21 h

====

tested on: P-gp; test: In vivo microdialysis pharmacokinetics of free FLZ in blood and brain dialysates, with or without zosuquidar·3HCl pretreatment; design: species or system rat; conditions: rat, brain (striatum) dialysate, iv, 35 mg/kg, with zosuquidar·3HCl 20 mg/kg i.v. 10 min before FLZ, FLZ + ZOSUQ-PD: 6-OHDA PD rats, zosuquidar·3HCl 20 mg/kg i.v. pretreatment, FLZ 35 mg/kg i.v., brain dialysate; read-out: t 1/2, Brain (converted)
Result type: half-life (h)
Numbers only here, please. The scale is h.

Give a short answer stating reported half-life for COc1ccc(OC)c(C(=Cc2ccc(O)c(OC)c2)C(=O)NCCc2ccc(O)cc2)c1 .
1.14

====

test system: P-gp; experiment: In vivo microdialysis pharmacokinetics of free FLZ in blood and brain dialysates, with or without zosuquidar·3HCl pretreatment; design: species or system rat; details: rat, blood (jugular vein) dialysate, iv, 35 mg/kg, with zosuquidar·3HCl 20 mg/kg i.v. 10 min before FLZ, FLZ + ZOSUQ-N: normal rats, zosuquidar·3HCl 20 mg/kg i.v. pretreatment, FLZ 35 mg/kg i.v., blood dialysate; read-out: CLz, Blood (converted)
Result type: clearance

Give a short answer stating reported clearance for COc1ccc(OC)c(C(=Cc2ccc(O)c(OC)c2)C(=O)NCCc2ccc(O)cc2)c1 .
473 mL/min/kg

====

assay: In vivo microdialysis pharmacokinetics of free FLZ in blood and brain dialysates, with or without zosuquidar·3HCl pretreatment; parameters: species or system rat; details: rat, brain (striatum) dialysate, iv, 35 mg/kg, FLZ only-N: normal rats, FLZ 35 mg/kg i.v., brain dialysate; read-out: t 1/2, Brain (converted)
Result type: half-life (h)
Numbers only here, please. The scale is h.

Give a short answer stating reported half-life for COc1ccc(OC)c(C(=Cc2ccc(O)c(OC)c2)C(=O)NCCc2ccc(O)cc2)c1 [FLZ] .
1.15

====

tested on: P-gp; assay: In vivo microdialysis pharmacokinetics of free FLZ in blood and brain dialysates, with or without zosuquidar·3HCl pretreatment; set-up: species or system rat; conditions: rat, blood (jugular vein) dialysate, iv, 35 mg/kg, with zosuquidar·3HCl 20 mg/kg i.v. 10 min before FLZ, FLZ + ZOSUQ-PD: 6-OHDA PD rats, zosuquidar·3HCl 20 mg/kg i.v. pretreatment, FLZ 35 mg/kg i.v., blood dialysate; read-out: CLz, Blood (converted)
Result type: clearance (mL/min/kg)
Numbers only here, please. The scale is mL/min/kg.

Give a short answer stating reported clearance for COc1ccc(OC)c(C(=Cc2ccc(O)c(OC)c2)C(=O)NCCc2ccc(O)cc2)c1 [FLZ] .
447

====

assay: In vivo microdialysis pharmacokinetics of free FLZ in blood and brain dialysates, with or without zosuquidar·3HCl pretreatment; set-up: species or system rat; conditions: rat, brain dialysate / blood dialysate, iv, 35 mg/kg, FLZ only-N: normal rats, FLZ 35 mg/kg i.v., BBB penetration ratio of free FLZ; read-out: Ri (AUCbrain/AUCblood)
Result type: unbound brain-to-blood AUC ratio (Kp,uu)
Lab note: record just the number, no unit beside it.

Give a short answer stating reported unbound brain-to-blood AUC ratio (Kp,uu) for COc1ccc(OC)c(C(=Cc2ccc(O)c(OC)c2)C(=O)NCCc2ccc(O)cc2)c1 .
0.0617

====

test: In vivo microdialysis pharmacokinetics of free FLZ in blood and brain dialysates, with or without zosuquidar·3HCl pretreatment; parameters: species or system rat; conditions: rat, brain dialysate / blood dialysate, iv, 35 mg/kg, FLZ only-PD: 6-OHDA PD rats, FLZ 35 mg/kg i.v., BBB penetration ratio of free FLZ; read-out: Ri (AUCbrain/AUCblood)
Result type: unbound brain-to-blood AUC ratio (Kp,uu)
Lab note: record just the number, no unit beside it.

Give a short answer stating reported unbound brain-to-blood AUC ratio (Kp,uu) for COc1ccc(OC)c(C(=Cc2ccc(O)c(OC)c2)C(=O)NCCc2ccc(O)cc2)c1 .
0.0492

====

test: In vivo microdialysis pharmacokinetics of free FLZ in blood and brain dialysates, with or without zosuquidar·3HCl pretreatment; parameters: species or system rat; conditions: rat, blood (jugular vein) dialysate, iv, 35 mg/kg, FLZ only-PD: 6-OHDA PD rats, FLZ 35 mg/kg i.v., blood dialysate; read-out: CLz, Blood (converted)
Result type: clearance (mL/min/kg)
Numbers only here, please. The scale is mL/min/kg.

Give a short answer stating reported clearance for COc1ccc(OC)c(C(=Cc2ccc(O)c(OC)c2)C(=O)NCCc2ccc(O)cc2)c1 .
195

====

system: P-gp; assay: In vivo microdialysis pharmacokinetics of free FLZ in blood and brain dialysates, with or without zosuquidar·3HCl pretreatment; parameters: species or system rat; settings: rat, brain dialysate / blood dialysate, iv, with zosuquidar·3HCl 20 mg/kg i.v. 10 min before FLZ, FLZ + ZOSUQ-PD: 6-OHDA PD rats, zosuquidar·3HCl 20 mg/kg i.v. pretreatment, FLZ 35 mg/kg i.v.; read-out: Ri (AUCbrain/AUCblood)
Result type: unbound brain-to-blood AUC ratio (Kp,uu)
Lab note: record just the number, no unit beside it.

Give a short answer stating reported unbound brain-to-blood AUC ratio (Kp,uu) for COc1ccc(OC)c(C(=Cc2ccc(O)c(OC)c2)C(=O)NCCc2ccc(O)cc2)c1 [FLZ] .
0.246

====

test: In vivo microdialysis pharmacokinetics of free FLZ in blood and brain dialysates, with or without zosuquidar·3HCl pretreatment; parameters: species or system rat; settings: rat, blood (jugular vein) dialysate, iv, 35 mg/kg, FLZ only-PD: 6-OHDA PD rats, FLZ 35 mg/kg i.v., blood dialysate; read-out: t 1/2, Blood (converted)
Result type: half-life

Give a short answer stating reported half-life for COc1ccc(OC)c(C(=Cc2ccc(O)c(OC)c2)C(=O)NCCc2ccc(O)cc2)c1 .
1.34 h

====

system: P-gp; assay: In vivo microdialysis pharmacokinetics of free FLZ in blood and brain dialysates, with or without zosuquidar·3HCl pretreatment; set-up: species or system rat; settings: rat, blood (jugular vein) dialysate, iv, 35 mg/kg, with zosuquidar·3HCl 20 mg/kg i.v. 10 min before FLZ, FLZ + ZOSUQ-PD: 6-OHDA PD rats, zosuquidar·3HCl 20 mg/kg i.v. 10 min before FLZ 35 mg/kg i.v., blood dialysate, n = 3
Result type: AUC (µg·h/mL)
Numbers only here, please. The scale is µg·h/mL.

Give a short answer stating reported AUC for COc1ccc(OC)c(C(=Cc2ccc(O)c(OC)c2)C(=O)NCCc2ccc(O)cc2)c1 .
1.33

====

assay: In vivo microdialysis pharmacokinetics of free FLZ in blood and brain dialysates, with or without zosuquidar·3HCl pretreatment; parameters: species or system rat; settings: rat, blood dialysate and brain dialysate, intravenous, 35 mg/kg, present study, both in the blood and brain, free FLZ; read-out: t 1/2 of FLZ (converted)
Result type: half-life

Give a short answer stating reported half-life for COc1ccc(OC)c(C(=Cc2ccc(O)c(OC)c2)C(=O)NCCc2ccc(O)cc2)c1 .
~1.1 h

====

test: In vivo microdialysis pharmacokinetics of free FLZ in blood and brain dialysates, with or without zosuquidar·3HCl pretreatment; parameters: species or system rat; details: rat, blood (jugular vein) dialysate, iv, 35 mg/kg, FLZ only-PD: 6-OHDA PD rats, FLZ 35 mg/kg i.v., blood dialysate, free FLZ, n = 3
Result type: AUC (ng·h/mL)
Numbers only here, please. The scale is ng·h/mL.

Give a short answer stating reported AUC for COc1ccc(OC)c(C(=Cc2ccc(O)c(OC)c2)C(=O)NCCc2ccc(O)cc2)c1 .
3070
